The reader will find reported pIC50 values listed item by item below.
Molecular target: Ras farnesyl transferase (Rattus norvegicus, UniProt Q02293+Q04631)
Construct: endogenous in cells; host or cells: Rat2 fibroblasts transformed with C-Harvey-Ras or with the H-Ras/K-Ras polybasic-domain fusion
Experiment: In vivo (intracellular) Ras farnesylation inhibition in Rat2 cell line transformed with H-Ras fused with polybasic lysine domain of K-Ras
Type: cell-based
Conditions: Rat2 cells transformed with H-Ras/K-Ras polybasic domain fused protein; concentration inhibiting 50% of farnesyl binding; read-out: K-Ras CIC50
Procedure: In the present experiment, Rat2 cell line which expresses C-Harvey-Ras protein having transforming activity and Rat2 cell line(Korean patent application No. 97-14409) which is transformed with fused protein of H-Ras substituted with polybasic lysine domain at C-terminus of K-Ras were used. The experiment was performed by the modified Declue's method(Declue. J. E. et al., Cancer Research, 51, 712, 1991) as follows. […]
pIC50: −log10 of the molar value.

Lab note: molecule CON1CCN(C(=O)c2cn(Cc3c(C)ncn3Cc3ccc4c(c3)OCO4)cc2-c2cccc3ccccc23)CC1 tested on Ras farnesyl transferase (Rattus norvegicus, UniProt Q02293+Q04631); recorded pIC50 was < 5.00

Lab note: molecule COCCN(C)C(=O)c1cn(Cc2cncn2CCCOc2ccccc2)cc1-c1cccc2ccccc12 tested on Ras farnesyl transferase (Rattus norvegicus, UniProt Q02293+Q04631); recorded pIC50 was 4.00 to 5.00

Lab note: molecule Cc1ncn(Cc2ccc3ccccc3c2)c1Cn1cc(C(=O)N2CCN(C)CC2)c(-c2cc(Br)cc3ccccc23)c1 tested on Ras farnesyl transferase (Rattus norvegicus, UniProt Q02293+Q04631); recorded pIC50 was < 5.00

Lab note: molecule Cc1ncn(Cc2ccc3c(c2)OCO3)c1Cn1cc(C(=O)N2CCN(C)CC2)c(-c2cc(Cl)cc3ccccc23)c1 tested on Ras farnesyl transferase (Rattus norvegicus, UniProt Q02293+Q04631); recorded pIC50 was < 5.00

Lab note: molecule CSc1ncc(Cn2cc(C(=O)N3CCN(C)CC3)c(-c3cccc4ccccc34)c2)n1Cc1ccc2c(c1)OCO2 tested on Ras farnesyl transferase (Rattus norvegicus, UniProt Q02293+Q04631); recorded pIC50 was < 5.00

Lab note: molecule CN1CCN(C(=O)c2cn(Cc3c(N)ncn3Cc3ccc4c(c3)OCO4)cc2-c2cccc3ccccc23)CC1 tested on Ras farnesyl transferase (Rattus norvegicus, UniProt Q02293+Q04631); recorded pIC50 was < 5.00

Lab note: molecule O=[N+]([O-])c1cn(Cc2cncn2Cc2ccc3ccccc3c2)cc1-c1cccc2ccccc12 tested on Ras farnesyl transferase (Rattus norvegicus, UniProt Q02293+Q04631); recorded pIC50 was < 5.00
